Experiment: Acidity constant, pKa of the compound at 5 x 10^-5 M by UV/Vis spectrophotometric titration method
Assay type: physicochemical
MEASUREMENT LABEL: pKa at 50 µM
Respond numerically, and do not add a unit to the figure.

Dear colleague, I am looking for the recorded pKa at 50 µM of the following molecule: `O=C(O)/C(O)=C/C(=O)c1cc(C2CCCCC2)ccc1C1CCCCC1`
7.56

* * *

Target: Albumin (Homo sapiens)
Sequence (P02768 whole entry): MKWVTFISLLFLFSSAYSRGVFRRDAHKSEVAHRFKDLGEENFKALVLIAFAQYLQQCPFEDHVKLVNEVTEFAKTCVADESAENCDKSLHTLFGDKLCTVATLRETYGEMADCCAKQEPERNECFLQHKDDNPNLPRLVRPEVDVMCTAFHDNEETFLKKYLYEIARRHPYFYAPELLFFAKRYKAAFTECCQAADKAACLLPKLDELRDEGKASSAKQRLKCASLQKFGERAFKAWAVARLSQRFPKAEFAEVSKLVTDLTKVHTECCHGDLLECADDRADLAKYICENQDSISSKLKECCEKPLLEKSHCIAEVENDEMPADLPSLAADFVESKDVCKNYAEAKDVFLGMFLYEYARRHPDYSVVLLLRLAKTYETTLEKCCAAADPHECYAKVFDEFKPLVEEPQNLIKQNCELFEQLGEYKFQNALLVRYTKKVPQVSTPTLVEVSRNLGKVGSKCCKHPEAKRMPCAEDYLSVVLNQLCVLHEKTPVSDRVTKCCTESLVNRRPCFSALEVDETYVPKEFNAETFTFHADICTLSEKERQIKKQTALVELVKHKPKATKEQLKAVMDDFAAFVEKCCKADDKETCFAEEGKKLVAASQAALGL
Test: Binding affinity to human serum albumin at 303K by Stern-Volmer plot method
Format: ADME
Conditions: isolated protein
MEASUREMENT LABEL: Kq (×10¹⁴ /M/s)
Your answer is read as ×10¹⁴ /M/s, so omit the unit and give the number.

Dear colleague, I am looking for the recorded Kq of the following compound: `O=C(O)/C(O)=C/C(=O)c1cc(C2CCCCC2)ccc1C1CCCCC1`
2.26
